Data origin, for the record: paper PMC4540187

- System: Btk (Homo sapiens)
- Sequence (Q06187 2-659): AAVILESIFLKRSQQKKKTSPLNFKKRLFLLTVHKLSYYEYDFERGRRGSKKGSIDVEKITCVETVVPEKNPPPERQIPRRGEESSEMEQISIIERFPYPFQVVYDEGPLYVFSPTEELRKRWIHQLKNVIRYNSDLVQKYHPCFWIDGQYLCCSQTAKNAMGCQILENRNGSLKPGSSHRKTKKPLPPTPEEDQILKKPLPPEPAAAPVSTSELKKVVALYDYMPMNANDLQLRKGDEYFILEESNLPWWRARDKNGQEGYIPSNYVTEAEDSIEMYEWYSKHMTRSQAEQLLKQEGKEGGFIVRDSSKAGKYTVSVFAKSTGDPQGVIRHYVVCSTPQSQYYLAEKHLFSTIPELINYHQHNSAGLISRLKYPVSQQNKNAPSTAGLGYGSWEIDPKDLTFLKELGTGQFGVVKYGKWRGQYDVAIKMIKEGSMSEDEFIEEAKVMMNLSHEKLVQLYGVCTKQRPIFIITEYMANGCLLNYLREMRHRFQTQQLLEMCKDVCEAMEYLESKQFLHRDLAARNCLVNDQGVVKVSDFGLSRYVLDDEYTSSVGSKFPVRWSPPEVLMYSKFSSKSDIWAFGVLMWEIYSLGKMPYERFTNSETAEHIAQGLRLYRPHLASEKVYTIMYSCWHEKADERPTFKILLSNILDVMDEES
Assay readout: IC50

// recorded IC50 for CC(C)Cc1nc2cc3c(cc2[nH]c1=O)nc(NC(=O)c1ccc(-c2ccncc2)cc1)n3CCCN1CCCCC1 [CTN06] : ~50 nM
